Tested on: NCI-H719 tumor spheroids, viability
Assay remarks: Anticancer human tumor NCI-H719 cell line growth inhibition;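 note: spheroids exposed to compounds for seven days; percent viability relative to DMSO vehicle control as 100%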
Condition: second compound 30 pM; first compound 0.3 µM; stronger effect = lower value; spheroids with HUVEC and MSC
Property measured: viability, T/C (%)

| Molecule | Measured number |
| --- | --- |
| O=C(c1cc(Cc2n[nH]c(=O)c3ccccc23)ccc1F)N1CCN(C(=O)C2CC2)CC1 + COc1cc2c(cc1O)CCNC21CSC2c3c(OC(C)=O)c(C)c4c(c3C(COC1=O)N1C(O)C3Cc5cc(C)c(OC)c(O)c5C(C21)N3C)OCO4 | 48.7 |
| Cc1sc2c(c1C)C(c1ccc(Cl)cc1)=NC(CC(=O)Nc1ccc(O)cc1)c1nnc(C)n1-2 (centres undefined) + COc1cc2c(cc1O)CCNC21CSC2c3c(OC(C)=O)c(C)c4c(c3C(COC1=O)N1C(O)C3Cc5cc(C)c(OC)c(O)c5C(C21)N3C)OCO4 | 11.1 |
| Cn1ncnc1[C@H]1c2n[nH]c(=O)c3cc(F)cc(c23)N[C@@H]1c1ccc(F)cc1 + COc1cc2c(cc1O)CCNC21CSC2c3c(OC(C)=O)c(C)c4c(c3C(COC1=O)N1C(O)C3Cc5cc(C)c(OC)c(O)c5C(C21)N3C)OCO4 | 10.9 |
| CNCc1ccc(-c2cc(-c3nc(-c4ccc(S(=O)(=O)C(C)C)cc4)cnc3N)on2)cc1 + COc1cc2c(cc1O)CCNC21CSC2c3c(OC(C)=O)c(C)c4c(c3C(COC1=O)N1C(O)C3Cc5cc(C)c(OC)c(O)c5C(C21)N3C)OCO4 | 15.5 |

----------
Reported values of viability, T/C for individual entries
Test system: NCI-H719 tumor spheroids, viability
Assay remarks: Anticancer human tumor NCI-H719 cell line growth inhibition;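 note: spheroids exposed to compounds for seven days; percent viability relative to DMSO vehicle control as 100%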
Condition: second compound 0.0003 µM; first compound 3 µM; stronger effect = lower value; spheroids with HUVEC and MSC

| Compound | Tested target | viability, T/C [%] |
| --- | --- | --- |
| CNCc1ccc(-c2cc(-c3nc(-c4ccc(S(=O)(=O)C(C)C)cc4)cnc3N)on2)cc1 + COc1cc2c(cc1O)CCNC21CSC2c3c(OC(C)=O)c(C)c4c(c3C(COC1=O)N1C(O)C3Cc5cc(C)c(OC)c(O)c5C(C21)N3C)OCO4 | NCI-H719 tumor spheroids, viability | 0.75 |
| O=C(c1cc(Cc2n[nH]c(=O)c3ccccc23)ccc1F)N1CCN(C(=O)C2CC2)CC1 + COc1cc2c(cc1O)CCNC21CSC2c3c(OC(C)=O)c(C)c4c(c3C(COC1=O)N1C(O)C3Cc5cc(C)c(OC)c(O)c5C(C21)N3C)OCO4 | NCI-H719 tumor spheroids, viability | 11.6 |
| Cn1ncnc1[C@H]1c2n[nH]c(=O)c3cc(F)cc(c23)N[C@@H]1c1ccc(F)cc1 + COc1cc2c(cc1O)CCNC21CSC2c3c(OC(C)=O)c(C)c4c(c3C(COC1=O)N1C(O)C3Cc5cc(C)c(OC)c(O)c5C(C21)N3C)OCO4 | NCI-H719 tumor spheroids, viability | 7.06 |
| Cc1sc2c(c1C)C(c1ccc(Cl)cc1)=NC(CC(=O)Nc1ccc(O)cc1)c1nnc(C)n1-2 (centres undefined) + COc1cc2c(cc1O)CCNC21CSC2c3c(OC(C)=O)c(C)c4c(c3C(COC1=O)N1C(O)C3Cc5cc(C)c(OC)c(O)c5C(C21)N3C)OCO4 | NCI-H719 tumor spheroids, viability | 2.8 |
